target: dopamine D2 receptor (Rattus norvegicus, UniProt P61169); experiment: Dopamine D2 receptor test; binding of 3H-sulpiride to membranes from the striatum of rats; conditions: 3H-sulpiride, rat striatum membranes; Ki calculated from IC50; read-out: Ki
Sequence (P61169 whole entry): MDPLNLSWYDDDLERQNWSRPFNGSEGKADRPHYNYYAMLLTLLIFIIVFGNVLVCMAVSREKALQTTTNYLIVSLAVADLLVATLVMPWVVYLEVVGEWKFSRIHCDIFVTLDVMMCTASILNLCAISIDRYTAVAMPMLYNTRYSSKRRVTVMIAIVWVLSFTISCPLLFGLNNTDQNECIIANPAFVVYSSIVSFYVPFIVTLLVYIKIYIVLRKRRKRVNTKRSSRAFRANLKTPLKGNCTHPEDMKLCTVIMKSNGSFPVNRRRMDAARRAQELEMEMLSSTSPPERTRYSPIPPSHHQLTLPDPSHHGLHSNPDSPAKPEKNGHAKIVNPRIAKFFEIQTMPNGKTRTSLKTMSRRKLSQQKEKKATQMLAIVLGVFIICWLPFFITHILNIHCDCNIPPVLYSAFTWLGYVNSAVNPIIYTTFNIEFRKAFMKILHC
Where a name gives a salt, the structure may show the parent alone.
Assay metric: Ki (nM)

COc1cccc2c1OC(CN1CCC(CN3C(=O)c4ccccc4C3=O)CC1)CC2 (centres unmarked) [Example 2, oxalate hydrate] ... 1.8
COc1cccc2c1OC(CN1CC=C(n3c(=O)[nH]c4ccccc43)CC1)CC2 (centres unmarked) ... 2.3

====

target: 5-HT1 receptor; test: Affinity for the 5-HT1 receptor; receptor-binding studies using calf hippocampus membrane preparations, 3H-serotonin; settings: calf hippocampus membranes
Structures can show the parent of a compound that is named as a salt.
This section presents compounds with their documented pKi values.
Scale: pKi equals -log10([C]), with [C] in mol/L.

COc1cccc2c1OC(CN1CCC(n3c(=O)[nH]c4ccccc43)CC1)CC2 (centres unmarked) ... 8.70

Then there is this compound:
Ask | What value of pKi has been reported for the following compound? COc1cccc2c1OC(CN1CCC(CN3C(=O)c4ccccc4C3=O)CC1)CC2 (centres unmarked) [Example 2, oxalate hydrate]
Reply | 8.52

src = patent US5696136A
